details: buffer; pH 7.4; 200.0 µM
Measured solubility kinetic by item
Write the number in µg/mL without appending the unit.

The examples below pair each entry with its known result.
Challenge: GET /values?readout=solubility kinetic&item= Nc1cccc(-n2cccc2)c1
Response given: 18.2

Challenge: Query Cc1cc(C)nc(Oc2ccc(Br)cc2)n1 next
Response given: 35.5

Attention now shifts to the item below.
Challenge: GET /values?readout=solubility kinetic&item= S=C(NC1CCCCC1)N1CCn2cccc2C1c1ccncc1 (configuration not stated)
Response given: 36.1

* * *

Measured solubility kinetic by item
details: buffer; pH 7.4; 200.0 µM

Challenge: GET /values?readout=solubility kinetic&item= CC(Oc1ccc2c(-c3ccccc3)cc(=O)oc2c1)C(=O)NC(Cc1c[nH]c2ccccc12)C(=O)O (stereo unspecified)
Response given: > 74.5 µg/mL

Challenge: Query CN1C(=O)C(CC(=O)NC2CCCCC2)N(C)C1=O (stereo unspecified) next
Response given: > 40.1 µg/mL

Challenge: Query COc1ccc(NC(=O)C2COc3ccccc3O2)cc1 (stereo unspecified) next
Response given: > 42.8 µg/mL

Challenge: Query Cc1ccc(-c2csc(NC(=O)c3ccc(F)cc3)c2C(=O)O)cc1 next
Response given: > 53.3 µg/mL

Challenge: Query CN(CCOC(=O)/C=C/c1ccco1)Cc1ccccc1 next
Response given: > 42.8 µg/mL

Challenge: Query O=C(Nc1c(-c2ccccc2)nc2ccccn12)c1ccccc1F next
Response given: > 49.7 µg/mL

* * *

details: buffer; pH 7.4; 200.0 µM
MEASUREMENT KIND: solubility kinetic (µg/mL)
Write the number in µg/mL without appending the unit.

Challenge: GET /values?readout=solubility kinetic&item= O=S(=O)(c1ccc(Cl)cc1)N1CCCCC1c1cccnc1 (stereo not drawn)
Response given: 47.7

Attention now shifts to the item below.
Challenge: GET /values?readout=solubility kinetic&item= Nc1nc(C(c2ccccc2)c2ccccc2)cs1
Response given: 11

* * *

conditions: buffer; pH 7.4; 200.0 µM
Measured solubility kinetic by item

Challenge: GET /values?readout=solubility kinetic&item= COc1ccc(CNC(=O)CC2(CC(=O)O)CCCCC2)cc1
Response given: > 47.9 µg/mL

More entries:
Challenge: GET /values?readout=solubility kinetic&item= CC1(C)CC2(CCO1)OC(=O)CC2C(=O)Nc1ccc(Cl)cc1[N+](=O)[O-] (stereo unspecified)
Response given: > 57.4 µg/mL

Challenge: Query COc1cc(NC(=O)c2ccccc2)ccc1NC(=O)Cc1ccccc1 next
Response given: < 0.4 µg/mL

Challenge: Query COC(=O)c1cn(-c2cccc(C)n2)cn1 next
Response given: > 32.6 µg/mL

Challenge: Query CCCC1(CCC)NC(=O)N(CC(=O)N2CCc3ccccc32)C1=O next
Response given: > 51.5 µg/mL

Challenge: Query CN(c1cccc(NS(=O)(=O)c2ccccc2)c1)S(C)(=O)=O next
Response given: > 51.1 µg/mL

* * *

conditions: buffer; pH 7.4; 200.0 µM
MEASUREMENT KIND: solubility kinetic

Challenge: GET /values?readout=solubility kinetic&item= C/C=C/C(=O)OCC(=O)Nc1ccc(OC)c(OC)c1
Response given: > 41.9 µg/mL

Challenge: Query O=C(COC(=O)COc1cccc(F)c1)NCC1CCCCC1 next
Response given: > 48.5 µg/mL

Attention now shifts to the item below.
Challenge: GET /values?readout=solubility kinetic&item= Cc1c(C)n(CCCN(C)C)c2ncnc(NCc3ccccc3)c12
Response given: > 50.6 µg/mL

* * *

details: buffer; pH 7.4; 200.0 µM
MEASUREMENT KIND: solubility kinetic (µg/mL)
Write the number in µg/mL without appending the unit.

Challenge: GET /values?readout=solubility kinetic&item= CCn1c(O)c(C=Nc2ccccc2)sc1=O
Response given: 0.5

Challenge: Query Cc1cccc(NC(=O)Nc2ccc(F)cc2)n1 next
Response given: 1.6

Challenge: Query O=C(Nc1ccc(Cl)c(C(F)(F)F)c1)c1ccncc1 next
Response given: 38.7

Challenge: Query COc1ccc(NC(=O)COc2ccccc2Cc2ccccc2)cn1 next
Response given: 12.2

Challenge: Query O=C1CN(C(=O)COC(=O)/C=C/c2ccc(F)cc2)c2ccccc2N1 next
Response given: 4.6

More entries:
Challenge: GET /values?readout=solubility kinetic&item= O=C(NC1CCN(C(=O)c2cccs2)CC1)c1ccccc1
Response given: 46.1

Challenge: Query Cc1ccc(Sc2ncnc3onc(C)c23)c(C)c1 next
Response given: 1.9

Challenge: Query CC(C)(C)NC(=O)NC(=O)CN1CC=C(c2ccccc2)CC1 next
Response given: 38.9

Challenge: Query CCOc1ccc(NC(=O)c2ccccc2NC(=O)c2cccnc2)cc1 next
Response given: 1.4

Challenge: Query Cc1ccccc1N1CCN(Cc2ccc3c(c2)OCO3)CC1 next
Response given: 21.5

* * *

Measured solubility kinetic by item
settings: buffer; pH 7.4; 200.0 µM

The examples below pair each entry with its known result.
Challenge: GET /values?readout=solubility kinetic&item= OCC1OC(n2cnc3c(NCCc4ccccc4)ncnc32)C(O)C1O (stereo not given)
Response given: > 55.7 µg/mL

Challenge: Query CCOC(=O)C1CCN(CC(=O)Nc2ccc(OC)c(S(=O)(=O)N3CCCCC3)c2)CC1 next
Response given: > 70.1 µg/mL

Challenge: Query COC(=O)c1ccc(C2C(C#N)=C(N)Oc3cc(O)ccc32)cc1 (stereo not given) next
Response given: 46.3 µg/mL

Challenge: Query O=S(=O)(c1ccccc1)c1nc(-c2ccccc2)oc1N1CCOCC1 next
Response given: 1.2 µg/mL

More entries:
Challenge: GET /values?readout=solubility kinetic&item= CCOC(=O)/C(C#N)=C\C1=C(N2CCOCC2)CC(C)(C)OC1
Response given: > 48.1 µg/mL

* * *

conditions: buffer; pH 7.4; 200.0 µM
MEASUREMENT KIND: solubility kinetic (µg/mL)
Write the number in µg/mL without appending the unit.

The examples below pair each entry with its known result.
Challenge: GET /values?readout=solubility kinetic&item= COc1ccc(Oc2ccccc2C#N)cc1
Response given: 9.9

Challenge: Query CSC1=NC2(CCCCC2)CC12C=CC(=O)C=C2 next
Response given: 36.2

Challenge: Query COc1ccccc1NC(=O)c1ccc2c(=O)n3c(nc2c1)CCC3 next
Response given: 13.2

Challenge: Query COc1ccc(NC2CCCN(Cc3cccc4cnccc34)C2)cc1 (stereo not given) next
Response given: 49.4

Challenge: Query CN(C(=O)CSc1ncccn1)C1CCS(=O)(=O)C1 (stereo not given) next
Response given: 42.2

Challenge: Query Cc1ccc(C)c(N2CCN(CC3CCCCC3)CC2)c1 next
Response given: 2.3

Attention now shifts to the item below.
Challenge: GET /values?readout=solubility kinetic&item= CC(C)c1ccc(S(=O)(=O)Nc2ccc3c(c2)OCO3)cc1
Response given: 26.4

* * *

details: buffer; pH 7.4; 200.0 µM
Label 1.0 when solubility kinetic >= 40 µg/mL; otherwise 0.0.

Challenge: In plain terms: is recorded solubility kinetic at least 40 µg/mL for COc1ccc(Nc2cc(C)c3cc([N+](=O)[O-])ccc3n2)cc1 ?
Response given: 0.0

Challenge: Query CCS(=O)(=O)c1ccc(C(=O)NC)c(Cl)c1Cl next
Response given: 1.0

Challenge: Query CCOn1c(=O)c(-c2ccc(Br)cc2)[n+]([O-])c2ccccc21 next
Response given: 0.0

Challenge: Query Cc1ccccc1NC(=S)NC1CCCC1 next
Response given: 0.0

Challenge: Query O=C(O)CCC(=O)N1CCN(c2ncccc2C(F)(F)F)CC1 next
Response given: 1.0

Challenge: Query CC(C)CC(=O)N1CCN(Cc2ccc(Br)cc2)CC1 next
Response given: 0.0

Challenge: Query O=C(COC(=O)C1CC2CCCC(C1)C2=O)NC1CCCCC1 (centres undefined) next
Response given: 1.0

Challenge: Query O=C(O)c1cc(S(=O)(=O)NCCN2CCNC2=O)ccc1O next
Response given: 1.0

More entries:
Challenge: In plain terms: is recorded solubility kinetic at least 40 µg/mL for Cc1ccccc1N=C1NC(=O)/C(=C/c2cccnc2)S1 ?
Response given: 0.0

Challenge: Query Cc1cccc(NC(=O)NNC(=O)c2ccccn2)c1 next
Response given: 1.0

Challenge: Query CCOc1ccc(-c2cn(-c3ccccc3OC)c(=S)[nH]2)cc1 next
Response given: 0.0

* * *

conditions: buffer; pH 7.4; 200.0 µM
MEASUREMENT KIND: solubility kinetic (µg/mL)
Write the number in µg/mL without appending the unit.

Challenge: GET /values?readout=solubility kinetic&item= CN(C)S(=O)(=O)Nc1ccccc1F
Response given: 30.2

* * *

details: buffer; pH 7.4; 200.0 µM
MEASUREMENT KIND: solubility kinetic

The examples below pair each entry with its known result.
Challenge: GET /values?readout=solubility kinetic&item= Nc1cccc(NC(=O)CCC(=O)NCc2ccco2)c1
Response given: > 43.1 µg/mL

Challenge: Query O=C(Nc1ccc(N2CCCCC2)cc1)c1ccc2ccccc2n1 next
Response given: < 0.2 µg/mL

Attention now shifts to the item below.
Challenge: GET /values?readout=solubility kinetic&item= O=C(N/N=C/c1ccccc1O)C(=O)N1CCCCCC1
Response given: > 43.4 µg/mL
